- Tested on: MYLK4
- CONDITION CONTEXT: concentration: 1 μM,replicates: in singlicate; n = 1;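 also: KINOMEscan kinase panel screen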
Could you label it 1 if measured %Inh is 10% or higher, and -1 otherwise?

1) CN(c1ccccc1CNc1nc(Nc2ccc3c(c2)CC(=O)N3)ncc1C(F)(F)F)S(C)(=O)=O = -1
2) CCCC(=O)Nc1n[nH]c2ncccc12 = -1
3) COC(=O)c1cccc(NC(=O)NC2CCN(c3ccnc(Nc4cc(OC)c(OC)c(OC)c4)n3)C2)c1 (stereo not shown) = 1
4) CS(=O)(=O)Nc1ccc(-c2ccnc3[nH]ccc23)cc1 = 1
5) CN1CCN(CCNc2nc3cc(Oc4ccc(NC(=O)Nc5cc(C(F)(F)F)ccc5F)cc4)ccc3[nH]2)CC1.Cl.Cl = -1
6) COc1cc2ncn(-c3cc(OCC4CCCCC4)c(C(N)=O)s3)c2cc1OC = 1
7) Cc1cccc2c(-c3ccncc3)c(-c3ccc(F)cc3)nn12.Cl = -1

---

- Test system: PKAC-beta
- Construct: gene PRKACB
- CONDITION CONTEXT: concentration: 1 μM,replicates: in singlicate; n = 1
Could you label it 1 (yes) if measured %Inh is 9% or higher, and 0 (no) otherwise?

1. COc1cc2c(Nc3ccc(NC(=O)c4ccccc4)cc3)ncnc2cc1OCCCN1CCOCC1 = 1 (yes)
2. CS(=O)(=O)c1cccc(CNc2nc(Nc3ccc4c(c3)[C@@H]3C[C@@H]4CNC3=O)ncc2C(F)(F)F)c1 = 0 (no)
3. OCCn1cc(-c2cnc3nnn(Cc4ccc5ncccc5c4)c3n2)cn1 = 0 (no)
4. Cn1ccc2ncnc(Oc3ccc(NC(=O)Nc4cccc(C(F)(F)F)c4)c(Cl)c3)c21 = 0 (no)
5. Cc1cccc2c(-c3ccncc3)c(-c3ccc(F)cc3)nn12.Cl = 0 (no)
6. CC(C)c1nc(-c2cccc(NS(=O)(=O)c3ccccc3)c2)c(-c2ccnc(Nc3ccc4c(c3)CN(C)CC4)n2)s1 = 0 (no)
7. C[C@@H](Oc1cc(-n2cnc3cc(-c4cnn(C)c4)ccc32)sc1C(N)=O)c1ccccc1Cl = 0 (no)
8. Cl.Cl.NC[C@H](CC1CCCCC1)NC(=O)c1ccc(-c2ccnc3[nH]ccc23)s1 = 1 (yes)
9. O=C(Nc1ccc(Oc2ccc3nc(NC(=O)C4CC4)cn3n2)c(F)c1)c1cccn(-c2ccccc2)c1=O = 1 (yes)
10. O=C1NCCc2[nH]c(-c3ccncc3)cc21 = 1 (yes)
11. NC(=O)Nc1sc(-c2ccc(F)cc2)cc1C(N)=O = 1 (yes)
12. Cn1ccc2ncnc(Oc3ccc(NC(=O)Nc4cc(C(C)(C)C)on4)c(Cl)c3)c21 = 0 (no)
13. CCN1CCN(CCCC(=O)Nc2n[nH]c3nc(-c4ccc(O)cc4)c(Br)cc23)CC1 = 0 (no)
14. Cc1ccc(C(=O)Nc2ccc(Oc3ccc4nc(NC(=O)C5CC5)cn4c3)c(F)c2)c(=O)n1-c1ccccc1 = 1 (yes)
15. CC(C(=O)NC1CCN(c2ccnc(Nc3ccc(F)cc3)n2)C1)c1ccc(Cl)cc1 (stereo not shown) = 0 (no)
16. CCn1c(-c2nonc2N)nc2cncc(CNC3CCNCC3)c21.Cl = 1 (yes)
17. c1ccc(Oc2ccc(Nc3ccnc4ccc(-c5ccccn5)cc34)cc2)cc1 = 0 (no)
18. COC(=O)c1cccc(NC(=O)NC2CCN(c3ccnc(Nc4cc(OC)c(OC)c(OC)c4)n3)C2)c1 (stereo not shown) = 0 (no)
19. COc1cc2ncn(-c3cc(OCC4CCCCC4)c(C(N)=O)s3)c2cc1OC = 0 (no)
20. Cn1cc(-c2cccc3c(N)c(C(N)=O)nnc23)cn1 = 1 (yes)
21. C[C@@H]1CNc2c(sc3ccc4nc(-c5ccncc5)ccc4c23)C(=O)N1 = 1 (yes)
22. C[C@@H]1CCN(C(=O)N2CCCC2)C[C@@H]1N(C)c1ncnc2[nH]ccc12 = 0 (no)
23. CC(=O)c1c(-c2ccncc2)[nH]c(-c2ccncc2)c1C = 1 (yes)
24. O=C(NOCC1CC1)c1cc(Br)c(F)c(F)c1Nc1ccc(I)cc1Cl = 0 (no)
25. Cc1ccc(Nc2ccnc(Nc3ccc4c(c3)CS(=O)(=O)C4)n2)cc1O.Cl = 0 (no)
26. CCOC(=O)N1CCC(n2cnc(-c3ccc(F)cc3)c2-c2ccnc(N)n2)CC1 = 1 (yes)
27. C[C@@H]1CNc2c(sc3ccc4nc(-c5ccc(O)cc5)ccc4c23)C(=O)N1 = 0 (no)

---

- Test system: NEK10
- CONDITION CONTEXT: concentration: 1 μM,replicates: in singlicate; n = 1
Parameter: %Inh. Scope: all listed entries.
OBSERVABLE: %Inh (%)

1) CC(C)S(=O)(=O)N1CCN(Cc2ccc3c(c2)nc(NC(=O)c2ccsc2)n3C[C@H](O)c2ccccc2)CC1 = 2
2) CN(c1ccccc1CNc1nc(Nc2ccc3c(c2)CC(=O)N3)ncc1C(F)(F)F)S(C)(=O)=O = 0
3) CN1CCN(CCCNc2nccc(-c3c(-c4ccc(F)cc4)nn4cc(C(N)=O)ccc34)n2)CC1 = 25
4) CCOC(=O)N1CCC(n2cnc(-c3ccc(F)cc3)c2-c2ccnc(N)n2)CC1 = 0
5) O=C(Nc1n[nH]c2cc(-c3ccco3)ccc12)C1CC1 = 0

---

- Tested on: HASPIN
- Construct: gene GSG2
- CONDITION CONTEXT: concentration: 1 μM,replicates: in singlicate; n = 1
Binarize %Inh at 30%; below is true, at or above is false.

1. CN(c1cccc(CNc2nc(Nc3ccc4c(c3)CC(=O)N4)ncc2C(F)(F)F)c1)S(C)(=O)=O = true
2. COc1cc2nccc(Nc3ccc(Oc4ccccc4)cc3)c2cc1OC.Cl = true
3. Cc1n[nH]c2cc(Nc3ccnc(Nc4cccc(CN5CCOCC5)c4)n3)ccc12 = true
4. CC(=O)Nc1nc2cnc(Nc3cc(NC(=O)c4cccc(CC(C)(C)C#N)c4)ccc3C)nc2s1 = true
5. COc1cc2ncn(-c3cc(OCC4CCCCC4)c(C(N)=O)s3)c2cc1OC = true
6. Cc1cccc2c(-c3ccncc3)c(-c3ccc(F)cc3)nn12.Cl = true
7. Cc1nnc(-c2ccc3occ(-c4ccc(S(C)=O)cc4)c3n2)o1 (stereo not drawn) = true
8. C[C@@H](Oc1cc(-n2cnc3cc(-c4ccncc4)ccc32)sc1C(N)=O)c1ccccc1Cl = false
9. CNC(=O)c1ccccc1Nc1nc(Nc2cccc(CS(C)(=O)=O)c2)ncc1C.O=CO = false

---

Parameter: %Inh. Scope: all listed entries.
- Tested on: PKN2
- CONDITION CONTEXT: concentration: 1 μM,replicates: in singlicate; n = 1
OBSERVABLE: %Inh (%)

1. CC(=O)Nc1nc2cnc(Nc3cc(NC(=O)c4cccc(CC(C)(C)C#N)c4)ccc3C)nc2s1 = 0
2. CC(C(=O)NC1CCN(c2ccnc(Nc3ccc(F)cc3)n2)C1)c1ccc(Cl)cc1 (centres unmarked) = 0
3. COc1cc2nccc(Nc3ccc(Oc4ccccc4)cc3)c2cc1OC.Cl = 0
4. CSc1nccc(-c2c(-c3ccc(F)cc3)ncn2CCCN2CCOCC2)n1.Cl = 0
5. COc1cccc(CNC(=O)NC2CCN(c3ccnc(Nc4cc(OC)c(OC)c(OC)c4)n3)C2)c1 (centres unmarked) = 0
6. Cc1n[nH]c2cc(Nc3ccnc(Nc4cccc(CN5CCOCC5)c4)n3)ccc12 = 0
7. Cn1cc(-c2cccc3c(N)c(C(N)=O)nnc23)cn1 = 23
8. Cn1ccc2ncnc(Oc3ccc(NC(=O)Nc4cnn(C(C)(C)C)c4)c(Cl)c3)c21 = 3

---

Parameter: %Inh. Scope: all listed entries.
- Test system: SIK
- CONDITION CONTEXT: concentration: 1 μM,replicates: in singlicate; n = 1
OBSERVABLE: %Inh (%)

1. CN1CCN(CCCNc2nccc(-c3c(-c4ccc(F)cc4)nn4cc(C(N)=O)ccc34)n2)CC1 = 7
2. N#Cc1cccc(C(=O)NC2CCN(c3ccnc(Nc4ccc(F)cc4)n3)C2)c1 (stereo not drawn) = 7
3. Cc1cccc(-c2nc(Nc3ccncc3)c3sccc3n2)n1 = 7

---

- Test system: CAMK2D
- CONDITION CONTEXT: concentration: 1 μM,replicates: in singlicate; n = 1
OBSERVABLE: %Inh (%)

1) C[C@@H]1CCN(C(=O)N2CCCC2)C[C@@H]1N(C)c1ncnc2[nH]ccc12 = 12
2) CC(=O)Nc1ccc(-c2cc3ncnc(SCC(=O)O)c3s2)cc1 = 21
3) Cn1ccc2ncnc(Oc3ccc(NC(=O)Nc4ccnc(C(F)(F)F)c4)c(Cl)c3)c21 = 13
4) COc1cccc(C2=C(Nc3cccc(Cl)c3)C(=O)NC2=O)c1 = 14
5) CC(C)c1nc(-c2cccc(NS(=O)(=O)c3ccccc3)c2)c(-c2ccnc(Nc3ccc4c(c3)CN(C)CC4)n2)s1 = 22
6) COc1cccc(OC)c1C(=O)Nc1cccc(-c2nn3ccccc3c2-c2ccnc(Nc3cccc(F)c3)n2)c1 = 0
7) Cc1cccc(-c2nc(Nc3ccncc3)c3sccc3n2)n1 = 14

The origin of these recorded values is paper PMC5540273.
